Cited source: the supplement of paper PMC10567573

B1: SPRY1 (parent)
chain: WIHRPGCRCKNSNTVYCKLESCPS

variants of: B1; experiment: protein stability index of a GFP-peptide fusion (GPS, HEK-293T) (PSI 1-6); higher = more stable; details: c terminus: a fixed tail appended;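 note: lentivirally expressed fusions sorted by FACS into six bins by GFP to DsRed ratio, PSI derived from sequencing read proportions per bin multiplied by bin number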
ENDPOINT_NAME: protein stability index
// response body must contain only the number

Example entries begin here.
| MUTATION_LIST | protein stability index |
| --- | --- |
| C22K | 1.88 |
| I2H | 2.77 |
| I2G | 2.73 |

Challenge: Would you kindly share the measured protein stability index for `C22D` ?
Response given: 1.98

Challenge: Would you kindly share the measured protein stability index for `S12M` ?
Response given: 2.33
